The measurements presented in this section are drawn from ChEMBL document CHEMBL4321813.

- Protocol Details: Lipophilicity, log D of the compound at pH 7.4 by chromatographic method
- Type: physicochemical
- Test Context: buffer
Cut-off 3 on chromatographic logD, inclusive. At or above means MET; below means NOT MET.

Worked cases, answers included:
Compound | Classification
N#Cc1ccc(O[C@H]2CN(S(=O)(=O)c3ccc(Cl)cc3Cl)C[C@@]2(O)CN)cc1F (racemic) | MET
N#Cc1ccc(O[C@H]2CN(S(=O)(=O)c3ccc(Cl)cc3)C[C@@]2(O)CO)cc1F | MET

Can N#Cc1ccc(O[C@H]2CN(S(=O)(=O)c3ccc(Cl)cn3)C[C@@]2(O)CN)cc1F be said to have chromatographic logD at or above 3?
NOT MET

Can N#Cc1ccc(O[C@H]2CN(S(=O)(=O)c3ccccc3C#N)C[C@@]2(O)CO)cc1F be said to have chromatographic logD at or above 3?
MET

Can N#Cc1ccc(S(=O)(=O)[C@H]2CN(S(=O)(=O)c3ccc(Cl)cc3Cl)C[C@@]2(O)CO)cc1 be said to have chromatographic logD at or above 3?
MET

====

- Protocol Details: Mean residence time in dog
- Format: ADME, Canis lupus familiaris
- Test Context: in vivo
Measurement Label: MRT
Write down the value, and be sure its unit follows.

Smiles Record | Measurement
N#Cc1ccc(O[C@H]2CN(S(=O)(=O)c3ccc(Cl)cn3)C[C@@]2(O)CO)cc1F | 7.8 h

Consider the record given below.
// field: MRT; key: N#Cc1ccc(O[C@H]2CN(S(=O)(=O)c3ccc(Cl)cn3)C[C@@]2(O)CN)cc1F ; value = 17 h

====

- Protocol Details: Oral bioavailability in Sprague-Dawley rat at 100 mg/kg using crystalline solid form of sample by HPLC-MS/MS analysis
- Format: ADME, organism-based
- Test Context: Sprague-Dawley, in vivo
Measurement Label: bioavailability (%)
Respond numerically; units are % and should not be typed.

// field: bioavailability; key: N#Cc1ccc(O[C@H]2CN(S(=O)(=O)c3ccc(Cl)cn3)C[C@@]2(O)CO)cc1F ; value = 7

====

- Protocol Details: Oral bioavailability in Sprague-Dawley rat at 100 mg/kg by HPLC-MS/MS analysis
- Format: ADME, organism-based
- Test Context: in vivo
Measurement Label: bioavailability (%)
Respond numerically; units are % and should not be typed.

// field: bioavailability; key: N#Cc1ccc(O[C@H]2CN(S(=O)(=O)c3ccc(Cl)cn3)C[C@@]2(O)CN)cc1F ; value = 87

====

Consider the following compounds and their measured Vduss readings.
- Protocol Details: Unbound volume of distribution at steady state in Sprague-Dawley rat at 1 mg/kg, iv administered as 30 mins infusion or 1 to 2 mg/kg, po by HPLC-MS/MS analysis
- Format: ADME, organism-based
- Test Context: in vivo, 0.5 h
Respond numerically; units are L/kg and should not be typed.

Compound | Vduss [L/kg]
N#Cc1ccc(O[C@H]2CN(S(=O)(=O)c3ccc(Cl)cc3Cl)CC2(O)CO)cc1F (single isomer, unassigned) | 330
N#Cc1ccc(O[C@H]2CN(S(=O)(=O)c3ccc(C(F)(F)F)cc3C#N)C[C@@]2(O)CO)cc1F | 73
N#Cc1ccc(O[C@H]2CN(S(=O)(=O)c3ccc(C(F)(F)F)cc3)C[C@@]2(O)CO)cc1F | 180

// field: Vduss; key: N#Cc1ccc(O[C@H]2CN(S(=O)(=O)c3ccc(Cl)cc3)C[C@@]2(O)CO)cc1F ; value = 170

// field: Vduss; key: N#Cc1ccc(O[C@H]2CN(S(=O)(=O)c3ccc(C(F)(F)F)nc3)C[C@@]2(O)CO)cc1F ; value = 28

// field: Vduss; key: N#Cc1ccc(O[C@H]2CN(S(=O)(=O)c3ccc(Cl)cn3)C[C@@]2(O)CN)cc1F ; value = 47

====

Consider the following compounds and their measured Ratio readings.
- Protocol Details: Ratio of unbound clearance in Sprague-Dawley rat at 1 mg/kg, iv administered as 30 mins infusion to unbound clearance in dog
- Type: ADME, organism-based
- Test Context: in vivo, 0.5 h
Response field accepts a number only; no unit should be typed.

Smiles Record | Ratio
N#Cc1ccc(O[C@H]2CN(S(=O)(=O)c3ccc(Cl)cn3)C[C@@]2(O)CO)cc1F | 14
N#Cc1ccc(O[C@H]2CN(S(=O)(=O)c3ccc(C(F)(F)F)nc3)C[C@@]2(O)CO)cc1F | 13
N#Cc1ccc(O[C@H]2CN(S(=O)(=O)c3ccc(Cl)cn3)C[C@@]2(O)CN)cc1F | 18

// field: Ratio; key: N#Cc1ccc(O[C@H]2CN(S(=O)(=O)c3ccc(C(F)(F)F)cc3C#N)C[C@@]2(O)CO)cc1F ; value = 22

====

- Protocol Details: Lipophilicity, log D of the compound at pH 7.4 by chromatographic method
- Type: physicochemical
- Test Context: buffer
Measurement Label: chromatographic logD
Response field accepts a number only; no unit should be typed.

Example entries begin here.
Compound | chromatographic logD
N#Cc1ccc(O[C@H]2CN(S(=O)(=O)c3ccc(Cl)cn3)C[C@@]2(O)CO)cc1F | 3.4
N#Cc1ccc(O[C@H]2CN(S(=O)(=O)c3ccc(Cl)cn3)C[C@]2(O)CO)cc1F | 3.5
N#Cc1ccc(O[C@H]2CN(S(=O)(=O)c3ccc(C(F)(F)F)cc3)C[C@@]2(O)CO)cc1F | 4.5

// field: chromatographic logD; key: N#Cc1ccc(O[C@H]2CN(S(=O)(=O)c3ccc(Cl)cc3Cl)CC2(O)CO)cc1F (single isomer, unassigned) ; value = 4.9

// field: chromatographic logD; key: N#Cc1ccc(S(=O)(=O)[C@H]2CN(S(=O)(=O)c3ccc(Cl)cn3)C[C@@]2(O)CO)cc1 ; value = 3.1

// field: chromatographic logD; key: N#Cc1ccc(O[C@H]2CN(S(=O)(=O)c3ccc(C(F)(F)F)nc3)C[C@@]2(O)CO)cc1F ; value = 4.2

====

- Protocol Details: Clearance in Sprague-Dawley rat at 1 mg/kg, iv administered as 30 mins infusion by HPLC-MS/MS analysis
- Format: ADME, organism-based
- Test Context: in vivo
Consider the following compounds and their measured clearance readings.
Respond numerically; units are mL/min/kg and should not be typed.

Example entries begin here.
Compound | Unit Tag | clearance
N#Cc1ccc(O[C@H]2CN(S(=O)(=O)c3ccc(Cl)cc3Cl)C[C@@]2(O)CN)cc1F (racemic) | mL/min/kg | 40
N#Cc1ccc(O[C@H]2CN(S(=O)(=O)c3ccc(Cl)cn3)C[C@@]2(O)CO)cc1F | mL/min/kg | 30
N#Cc1ccc(O[C@H]2CN(S(=O)(=O)c3ccc(Cl)cc3)C[C@@]2(O)CO)cc1F | mL/min/kg | 54
N#Cc1ccc(O[C@H]2CN(S(=O)(=O)c3ccc(C(F)(F)F)nc3)C[C@@]2(O)CO)cc1F | mL/min/kg | 31
N#Cc1ccc(O[C@H]2CN(S(=O)(=O)c3ccccc3C#N)C[C@@]2(O)CO)cc1F | mL/min/kg | 39
N#Cc1ccc(O[C@H]2CN(S(=O)(=O)c3ccc(Cl)cc3Cl)CC2(O)CO)cc1F (single isomer, unassigned) | mL/min/kg | 54
N#Cc1ccc(O[C@H]2CN(S(=O)(=O)c3ccc(Cl)cn3)C[C@@]2(O)CN)cc1F | mL/min/kg | 45

Consider the record given below.
// field: clearance; key: N#Cc1ccc(O[C@H]2CN(S(=O)(=O)c3ccc(C(F)(F)F)cc3)C[C@@]2(O)CO)cc1F ; value = 50

====

- Protocol Details: Unbound clearance in Sprague-Dawley rat at 1 mg/kg, iv administered as 30 mins infusion by HPLC-MS/MS analysis
- Format: ADME, organism-based
- Test Context: in vivo, 0.5 h
Measurement Label: CL free (mL/min/kg)
Respond numerically; units are mL/min/kg and should not be typed.

Example entries begin here.
Compound | CL free / mL/min/kg
N#Cc1ccc(O[C@H]2CN(S(=O)(=O)c3ccc(C(F)(F)F)nc3)C[C@@]2(O)CO)cc1F | 210
N#Cc1ccc(O[C@H]2CN(S(=O)(=O)c3ccc(Cl)cn3)C[C@@]2(O)CO)cc1F | 170
N#Cc1ccc(O[C@H]2CN(S(=O)(=O)c3ccc(Cl)cn3)C[C@]2(O)CO)cc1F | 150
N#Cc1ccc(O[C@H]2CN(S(=O)(=O)c3ccc(Cl)cc3Cl)C[C@@]2(O)CN)cc1F (racemic) | 1100
N#Cc1ccc(S(=O)(=O)[C@H]2CN(S(=O)(=O)c3ccc(Cl)cc3Cl)C[C@@]2(O)CO)cc1 | 925

Consider the record given below.
// field: CL free; key: N#Cc1ccc(O[C@H]2CN(S(=O)(=O)c3ccc(C(F)(F)F)cc3)C[C@@]2(O)CO)cc1F ; value = 1500

====

Consider the following compounds and their measured Vduss readings.
- Protocol Details: Unbound volume of distribution at steady state in Sprague-Dawley rat at 1 mg/kg, iv administered as 30 mins infusion or 1 to 2 mg/kg, po by HPLC-MS/MS analysis
- Format: ADME, organism-based
- Test Context: in vivo, 0.5 h
Write down the value, and be sure its unit follows.

Example entries begin here.
Compound | Vduss
N#Cc1ccc(O[C@H]2CN(S(=O)(=O)c3ccc(Cl)cc3Cl)C[C@@]2(O)CN)cc1F (racemic) | 210 L/kg
N#Cc1ccc(O[C@H]2CN(S(=O)(=O)c3ccc(Cl)cc3Cl)C[C@@]2(O)CO)cc1F | 54 L/kg
N#Cc1ccc(O[C@H]2CN(S(=O)(=O)c3ccccc3C#N)C[C@@]2(O)CO)cc1F | 4.6 L/kg

// field: Vduss; key: N#Cc1ccc(O[C@H]2CN(S(=O)(=O)c3ccc(Cl)cn3)C[C@@]2(O)CO)cc1F ; value = 12 L/kg

// field: Vduss; key: N#Cc1ccc(S(=O)(=O)[C@H]2CN(S(=O)(=O)c3ccc(Cl)cc3Cl)C[C@@]2(O)CO)cc1 ; value = 85 L/kg
